B1: NETO1 (parent)
chain: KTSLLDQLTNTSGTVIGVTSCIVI

# Variants of: B1
# PROTOCOL_NOTES: protein stability index of a GFP-peptide fusion (GPS, HEK-293T) (PSI 1-6); higher = more stable;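 further: lentivirally expressed fusions sorted by FACS into six bins by GFP to DsRed ratio, PSI derived from sequencing read proportions per bin multiplied by bin number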
# PARTICULARS: c terminus: a fixed tail appended
MEASUREMENT_NAME: protein stability index
Just the number, please, no unit attached.

For the variant `Q7R` , give its measured protein stability index value.
1.64

For the variant `I22N` , give its measured protein stability index value.
1.72

For the variant `D6Y` , give its measured protein stability index value.
3.38

For the variant `V15F` , give its measured protein stability index value.
2.44

For the variant `T9V` , give its measured protein stability index value.
2.63

For the variant `L4W` , give its measured protein stability index value.
3.2

For the variant `V23W` , give its measured protein stability index value.
2.74

For the variant `L8Y` , give its measured protein stability index value.
3.41

For the variant `S12Q` , give its measured protein stability index value.
2.56

For the variant `T9W` , give its measured protein stability index value.
3.88

For the variant `C21F` , give its measured protein stability index value.
3.65

For the variant `I16N` , give its measured protein stability index value.
2.27

For the variant `L8F` , give its measured protein stability index value.
2.71

For the variant `S3K` , give its measured protein stability index value.
2.88

For the variant `S12I` , give its measured protein stability index value.
2.89

For the variant `C21P` , give its measured protein stability index value.
2.13

For the variant `Q7S` , give its measured protein stability index value.
2.36

For the variant `G13V` , give its measured protein stability index value.
2.66

For the variant `L5I` , give its measured protein stability index value.
2.8

For the variant `T11G` , give its measured protein stability index value.
2.93

For the variant `T19R` , give its measured protein stability index value.
3.08

For the variant `I22V` , give its measured protein stability index value.
3.37

For the variant `D6P` , give its measured protein stability index value.
1.82

For the variant `L4F` , give its measured protein stability index value.
2.99

For the variant `D6N` , give its measured protein stability index value.
2.37

For the variant `S3T` , give its measured protein stability index value.
2.61

For the variant `T19K` , give its measured protein stability index value.
2.97

For the variant `T9H` , give its measured protein stability index value.
2.95

For the variant `K1Y` , give its measured protein stability index value.
2.37

For the variant `T11Q` , give its measured protein stability index value.
2.81

For the variant `N10F` , give its measured protein stability index value.
2.3

For the variant `V18G` , give its measured protein stability index value.
3.24

For the variant `T14K` , give its measured protein stability index value.
3.88

For the variant `S3D` , give its measured protein stability index value.
2.46

For the variant `L8H` , give its measured protein stability index value.
3.66

For the variant `S12K` , give its measured protein stability index value.
2.89

For the variant `T11M` , give its measured protein stability index value.
3.29

Cited source for all entries: the supplement of paper PMC10567573
